Where do these numbers come from? They come from PubChem BioAssay (NCI).

# TGI per entry
- System: U251 CNS
- assay.notes: NCI tumour cell line growth inhibition, 48 h

Reference set, count: 5
INSERT INTO results (molecule, value_reported) VALUES
  ('Cc1cccc2cc3c(ccc4ccccc43)c[n+]12', '40.6 µM'),
  ('O=[N+]([O-])c1ccc2[nH]nc(OCc3ccccn3)c2c1', '> 100 µM'),
  ('CC(=O)N1c2ccccc2C2=CC3C4C(=O)N(c5ccccc5)C(=O)C4C21C1C(=O)N(c2ccccc2)C(=O)C31 (stereo not drawn)', '> 100 µM'),
  ('Nc1nc(N)c(Cn2ccnc2)c(=O)[nH]1', '> 100 µM'),
  ('COc1ccc(/C=C2\C(=O)N(C)C(=O)c3cc(OC)c(OC)cc32)cc1OC', '> 100 µM');

# input For the molecule N#Cc1c2c(c(Nc3cccc(C(F)(F)F)c3)n3c1nc1ccccc13)CCC2 , what TGI is on record?
# output > 100 µM

# input I'd like to know its TGI. The molecule in question is COc1cc2c(cc1O)-c1c(cnn1-c1ccc([N+](=O)[O-])cc1)CCC2
# output 24.9 µM

# input Record request: TGI value, item C1=Nc2ccc(cc2)N=Cc2ccc(cc2)OCc2cccc(n2)COc2ccc1cc2
# output > 100 µM

# input So what's the measured TGI for this one? CC1=NOC2(C1)C(=O)Nc1ccccc12 (stereo not drawn)
# output > 100 µM

# input Query: TGI; subject: COc1ccc(NC(=O)CC(=O)N2N=C(c3ccccc3)C(N=Nc3ccc(S(=O)(=O)CCOS(=O)(=O)O)cc3)C2=O)cc1 (stereo not drawn)
# output > 100 µM

---

Catalogue of molecules with associated GI50
- System: UACC-257 melanoma
- assay.notes: NCI tumour cell line growth inhibition, 48 h

INSERT INTO results (molecule, value_reported) VALUES
  ('COc1cc(C(=O)N2N=C(c3ccc(S(C)(=O)=O)cc3)CC2c2ccco2)cc(OC)c1OC (stereo unspecified)', '> 100 µM');

# input Param item = CC(C)(O)C#Cc1ccc(/C=C/C(=O)c2ccccc2)s1 ; retrieve measured GI50.
# output 18.4 µM

# input Need GI50 of CC(=O)Nc1ccc(/C=C/C(=O)c2ccccc2)cc1 , thanks.
# output 20.7 µM

# input Find the recorded GI50 belonging to CC(C)Nc1ccc(Nc2ccccc2)cc1 and report it.
# output 15.6 µM

# input Which GI50 reading was recorded for the molecule Cn1cc(C2=C(c3cccc(N)c3)C(=O)NC2=O)c2ccccc21 ?
# output > 25 µM

# input Could you share which GI50 value was measured for Cc1ccc2c(c1)c1nc3cc(C)c(C)cc3nc1n2CCN(C)C ?
# output 2.2 µM

---

- Test system: PC-3 prostate
- assay.notes: NCI tumour cell line growth inhibition, 48 h
Assign Satisfied to entries whose TGI meets or exceeds 30 µM; assign Not satisfied to the rest.

Solved entries (count: 5):
INSERT INTO measurements (compound, group_label) VALUES
  ('C1=Nc2ccc(cc2)N=Cc2ccc(cc2)OCc2cccc(n2)COc2ccc1cc2', 'Satisfied'),
  ('S=C1Cc2c(-c3ccc(Cl)cc3)cc(-c3ccccc3)nc2-c2ccccc2N1', 'Satisfied'),
  ('CCCCOc1ccc(NC(=O)n2nc(N)c3ccccc32)cc1', 'Satisfied'),
  ('O=C(N/N=C(/COc1ccc(Cl)cc1)N=Cc1cccnc1)c1ccncc1', 'Satisfied'),
  ('N/C(=C\C(=O)n1nc(-c2ccccc2)cc1N)c1ccccc1', 'Not satisfied');

# input Decide: is the reported value of TGI for O=C1Cc2c([nH]c3c(Cl)cccc23)-c2ccccc2N1 equal to or greater than 30 µM?
# output Satisfied

# input Is TGI for O=c1cc(-c2ccccc2)oc2cc(O)c(O)c(O)c12 at or above 30 µM?
# output Satisfied

# input Determine whether measured TGI meets or exceeds 30 µM for COC(=O)[C@@H]1C=C[C@H](OC2OC(COC(C)=O)C(OC(C)=O)C(OC(C)=O)C2OC(C)=O)n2c(=O)c3ccccc3c(=O)n21 (some centres not stated)
# output Not satisfied

# input Decide: is the reported value of TGI for COC(=O)C1=C(C(=O)OC)C(Cc2ccccc2)(OO)OC1=O (configuration not stated) equal to or greater than 30 µM?
# output Satisfied

# input Record C/C(=C\c1ccccc1)C(=O)NCc1ccc(C(=O)NCCC(C)C)cc1 ; criterion: TGI no lower than 30 µM. Met?
# output Satisfied

# input API: above_or_equal(metric=TGI, cutoff=30 µM) for item CC(C)(C)n1c(=O)[nH]n(C2NN=Cc3cccc4cccc2c34)c1=O (configuration not stated)
# output Satisfied

# input Quick check: does O=C1N(c2ccccc2)C2(c3ccccc3)CC3CCCC13S2 (configuration not stated) have TGI greater than or equal to 30 µM?
# output Satisfied

# input # bool: TGI of Cn1c(-c2cccs2)cc(-c2ccccc2)c1-c1cccs1 >= 30 µM
# output Satisfied

# input Is reported TGI greater than or equal to 30 µM here: C=C(C)C1Cc2c(cc(OC)c3c(=O)c4cccc(O)c4oc23)O1 (configuration not stated)
# output Satisfied

# input Is reported TGI greater than or equal to 30 µM here: COc1cc(-c2cc(=O)c3c(OC)c(OC)c(OC)cc3o2)c(OC)c(OC)c1OC
# output Satisfied

# input Is it the case that N#CC(c1ccnc(Cl)n1)c1nc2ccccc2s1 (configuration not stated) has TGI reaching or exceeding 30 µM?
# output Not satisfied
